Tested on: CCRIS mutagenicity, Ames/micronucleus/aberration tests
TEST_DESCRIPTION: CCRIS mutagenicity studies
EXPERIMENTAL_PARAMETERS: Test System: AMES SALMONELLA TYPHIMURIUM; Strain/Indicator: TA1537; Metabolic Activation: RAT, LIVER, S-9, AROCLOR 1254; Method: STANDARD PLATE
Activity calls are given as the source filed them. No rule for the calls is given here.
Labels: true (1) for active, false (0) for inactive

compound=c1ccc2cnncc2c1 assigned_label="false (0)"
compound=Nc1ccc2c(c1)C(=O)c1ccc(N)cc1C2=O assigned_label="true (1)"
compound=O=C(/C=C/c1ccc(O)c(O)c1)O[C@@H]1C[C@](O)(C(=O)O)C[C@@H](O)[C@H]1O assigned_label="false (0)"
compound=O=C(Cl)OCc1ccccc1 assigned_label="false (0)"
compound=CC/C(C)=N\O assigned_label="false (0)"
compound=CC(=O)O[C@]1(C(C)=O)CC[C@H]2[C@@H]3C[C@H](C)C4=CC(=O)CC[C@]4(C)[C@H]3CC[C@@]21C assigned_label="false (0)"
compound=Cn1c(-c2ccccc2)c(N=Nc2scc[n+]2C)c2ccccc21 assigned_label="true (1)"
compound=CC[C@H](C)[C@@H]([C@@H](CC(=O)N1CCC[C@H]1[C@H](OC)[C@@H](C)C(=O)N[C@@H](Cc1ccccc1)c1nccs1)OC)N(C)C(=O)[C@@H](NC(=O)[C@H](C(C)C)N(C)C)C(C)C assigned_label="false (0)"
compound=CC=O assigned_label="false (0)"
compound=Cl/C=C/C[N+]12CN3CN(CN(C3)C1)C2 assigned_label="false (0)"
compound=O=C(C(=O)c1ccccc1)c1ccccc1 assigned_label="false (0)"
compound=Nc1ccc(S(=O)(=O)Nc2nccs2)cc1 assigned_label="false (0)"
compound=COC(=O)Nc1nc2ccccc2[nH]1 assigned_label="false (0)"
compound=OCCNc1ccc(N=Nc2ccc(NCCO)cc2)cc1 assigned_label="false (0)"
compound="CC(CN1CC(=O)NC(=O)C1)N1CC(=O)NC(=O)C1 (stereo not drawn)" assigned_label="false (0)"
compound=CC(=O)Oc1ccccc1C(=O)O assigned_label="false (0)"
compound="O=C1Nc2ccc(Cl)cc2C(c2ccccc2)=NC1O (stereo not drawn)" assigned_label="false (0)"
compound=CS(=O)(=O)c1ccc(Cl)cc1 assigned_label="false (0)"
compound=CC(=O)Nc1ccc(O)cc1 assigned_label="false (0)"
compound=CC/C(=C(/CC)c1ccc(O)cc1)c1ccc(O)cc1 assigned_label="false (0)"
compound=CCO[Si](OCC)(OCC)OCC assigned_label="false (0)"
compound=N#CCCN assigned_label="false (0)"
compound="CCCCC(CC)COP(=O)(OCC(CC)CCCC)OCC(CC)CCCC (stereo not drawn)" assigned_label="false (0)"

Data provenance is PubChem BioAssay AID1259407.
